Several reports have described IC50 for Somatostatin receptor type 2 (Homo sapiens); a selection of those results is presented here.

Examples with answers:
{"columns": ["testSmiles", "IC50"],
 "data": [
  ["CC(C)NCc1ccc(C[C@@H]2NC(=O)[C@@H](Cc3c[nH]c4ccccc34)NC(=O)[C@H](Cc3ccccc3)NC(=O)[C@H](Cc3ccccc3)NC(=O)[C@H](CCCCN)NC(=O)[C@@H](N)CSSC[C@@H](C(=O)O)NC(=O)[C@H](CO)NC(=O)[C@H]([C@@H](C)O)N(C)C(=O)[C@H](Cc3ccccc3)NC(=O)[C@H]([C@@H](C)O)NC2=O)cc1", "> 1000 nM"],
  ["CC(C)NCc1ccc(C[C@@H]2NC(=O)[C@@H](Cc3c[nH]c4ccccc34)NC(=O)[C@H](Cc3ccccc3)NC(=O)[C@H](Cc3ccccc3)NC(=O)[C@H](CCCCN)NC(=O)[C@H](NC(=O)[C@@H](N)Cc3ccc(O)cc3)CSSC[C@@H](C(=O)O)NC(=O)[C@H](CO)NC(=O)[C@H]([C@@H](C)O)NC(=O)[C@H](Cc3ccccc3)NC(=O)[C@H]([C@@H](C)O)NC2=O)cc1", "> 10000 nM"]
]}

// next item, IC50 requested
Any idea what IC50 was measured for `C[C@@H](O)[C@@H]1NC(=O)[C@H](CCCCN)NC(=O)[C@H](Cc2c[nH]c3ccccc23)NC(=O)[C@H](Cc2ccc(N)cc2)NC(=O)[C@H](Cc2ccccc2)NC(=O)[C@@H](NC(N)=O)CSSC[C@@H](C(=O)O)NC(=O)[C@H](Cc2ccc(O)cc2)NC1=O` ?
> 1000 nM
